Measured values drawn from patent US20200062804A1 for this set.

Molecular target: T1, Nat1 (LTIITLE) (also: TFA salt)
T1 peptide: LTIITLE
Experiment: cell-based or functional assay
Non-standard residues stand in square brackets, D forms with d. No end group written: not given here.
IC50, Thiofiavin T aggregation assay: recorded values
EXPERIMENTAL READOUT: IC50, Thiofiavin T aggregation assay (nM)

{"BINDER": "[dY][dQ][dW][dR][dH][dW][dR] [yqwrhwr]", "EXPERIMENTAL READOUT": "IC50, Thiofiavin T aggregation assay", "UNIT": "nM", "MEASURED": 112}
{"BINDER": "[dR][dF][dY][dR][dR][dH][dR] [rfyrrhr]", "EXPERIMENTAL READOUT": "IC50, Thiofiavin T aggregation assay", "UNIT": "nM", "MEASURED": 81}
{"BINDER": "LTIRTWH", "EXPERIMENTAL READOUT": "IC50, Thiofiavin T aggregation assay", "UNIT": "nM", "MEASURED": 295}
{"BINDER": "IRIRRWR", "EXPERIMENTAL READOUT": "IC50, Thiofiavin T aggregation assay", "UNIT": "nM", "MEASURED": 76}
{"BINDER": "[dH][dL][dR][dI][dW][dR][dN] [hlriwrn]", "EXPERIMENTAL READOUT": "IC50, Thiofiavin T aggregation assay", "UNIT": "nM", "MEASURED": 97}
